Attribute: z-score
Target of assay: NADPH oxidase 5 (Homo sapiens)
Test method notes: NOX5-dependent H2O2 signal modulators, primary screen, NOX inhibitor project, cell-based, HEK293-NOX5, Amplex Red fluorescence (AID 1161)
Condition details: HEK293-NOX5, ionomycin, 45 min, higher = more signal
Answer with a bare number; do not write a unit.

Using the record for `COC(=O)c1c(CC[C@@H](CO)NC(=O)Nc2ccc(OC)cc2)oc(C(=O)Cc2ccccc2)c1C(=O)OC` , report its z-score. -2.22

---
Suppose we examine the compound `CO[C@H]1O[C@H](CO)[C@@H](OC(=O)CCc2ccccc2)[C@@H]2OC(=O)[C@H](Cc3ccccc3)C/C=C/C[C@@H](Cc3ccccc3)C(=O)O[C@@H]12` ; what z-score value has been reported? 0.751

What z-score value was documented for this compound, `CO[C@H]1O[C@H](CO)[C@@H](OC(=O)Nc2ccccc2)[C@H](OC(=O)Nc2ccccc2-c2ccccc2)[C@H]1OC(=O)Nc1ccccc1-c1ccccc1` ? -1.43

----------
Target of assay: NADPH oxidase 4 (Homo sapiens) (UniProt Q9NPH5)
Sequence (Q9NPH5 whole entry, looked up): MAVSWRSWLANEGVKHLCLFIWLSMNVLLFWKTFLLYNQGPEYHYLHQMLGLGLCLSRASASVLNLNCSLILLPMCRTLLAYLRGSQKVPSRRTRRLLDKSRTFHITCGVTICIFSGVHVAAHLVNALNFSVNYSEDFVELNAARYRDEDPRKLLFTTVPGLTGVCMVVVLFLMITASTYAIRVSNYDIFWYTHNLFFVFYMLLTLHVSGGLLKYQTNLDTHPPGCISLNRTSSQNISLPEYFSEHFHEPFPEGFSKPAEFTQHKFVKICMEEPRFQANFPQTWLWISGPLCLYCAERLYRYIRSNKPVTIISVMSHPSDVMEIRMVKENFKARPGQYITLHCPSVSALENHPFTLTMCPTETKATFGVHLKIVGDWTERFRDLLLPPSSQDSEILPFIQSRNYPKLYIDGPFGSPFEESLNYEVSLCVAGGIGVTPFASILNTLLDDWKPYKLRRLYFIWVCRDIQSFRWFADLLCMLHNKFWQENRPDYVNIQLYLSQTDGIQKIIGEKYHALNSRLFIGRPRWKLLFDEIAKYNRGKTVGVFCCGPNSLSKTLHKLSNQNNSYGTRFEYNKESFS
Test method notes: NOX4-dependent H2O2 signal modulators, primary screen, NOX inhibitor project, cell-based, HEK293-NOX4, tetracycline-induced, Amplex Red fluorescence (AID 1160)
Condition details: 45 min, higher = more signal, called active from +8 up or from −8 down
Readout label: z-score
Please state the value as a number alone, without comment.

For orientation, consider the following solved cases.
Report z-score for `C[N+](C)(C)CCCC[C@@H]1NC(=O)[C@H]2C[C@@H](C(=O)NCCCCCN)[C@@H](c3cccc(OCCO)c3)N2C1=O` please. -0.833

// lookup z-score for `CCOC(=O)C[C@H]1[C@H](OC(=O)Cc2ccc3c(c2)OCO3)[C@@H](NC(=O)c2ccc3ccccc3c2)c2cc(OCCCO)ccc2N1C(=O)c1ccc2ccccc2n1` -0.0398

Please look up its z-score: `C[N+](C)(C)CCCC[C@@H]1NC(=O)[C@@H]2C[C@H](C(=O)NCCCCCNC(=O)CS)[C@H](c3ccc(O)cc3)N2C1=O` 0.774

Requested field: z-score. Item: CCCCCN1CC=CC23O[C@@H]4/C=C\CCC(C)OC(=O)C4[C@H]2C(=O)N(CCO)[C@@H]3C1=O (stereo partly drawn) -0.354

New cases:
# input compound: `COc1ccc(C#Cc2ccc3c(c2)[C@]2(C(=O)N3)[C@H](c3ccc(O)cc3)N3[C@H](c4ccccc4)[C@H](c4ccccc4)OC(=O)[C@H]3[C@@H]2C(=O)N2CCN(c3ncccn3)CC2)cc1` ; wanted: its z-score 0.0458

May I ask what z-score has been recorded for `O=C(NC1CC1)[C@@H]1c2ccccc2C(=O)N(Cc2ccccc2C(F)(F)F)[C@H]1c1ccc(CO)cc1` ? 0.647

Please look up its z-score: `COC(=O)C(CC#Cc1ccc2c(c1)[C@]1(C(=O)N2)[C@H](C(=O)O)[C@H]2C(=O)O[C@H](c3ccccc3)[C@H](c3ccccc3)N2[C@@H]1c1ccc(OCCO)cc1)C(=O)OC` 0.164

// z-score lookup, key: `COc1c(C)cc(-c2cc3c(c(CCc4ccccc4)n2)[Si](C(C)C)(C(C)C)OC3)cc1C` 0.907

----------
Test method notes: basal MM1S mitochondrial membrane potential changes, profiling panel, cell-based, JC-1 fluorescence, 24 h, 100 nL compound (AID 1170); further: test concentration not given here
Condition details: higher = more signal
Collected z-score values appear next to each entry.
Write the number on its own, no unit after it.

Returns the measured z-score for the input compound. Input: `CCCNC(=O)[C@@H]1c2ccccc2C(=O)N(Cc2cc(C(F)(F)F)cc(C(F)(F)F)c2)[C@H]1c1ccc(CO)cc1` 1.01

Form field: reported z-score of `COc1ccc([Si](C)(C)[C@H]2[C@H](CCO)O[C@@]3(C(=O)N(Cc4ccc(N5C(=O)c6cccc7cccc5c67)cc4)c4ccccc43)[C@@H]2C)cc1` -1.6

Lab note: next compound to report on.
Tell me the measured z-score of `CC(C)C(=C=CC[C@@H](O)c1ccc(CO)o1)CCO` , please. 0.501

----------
Tested on: Human papillomavirus type 1a E7 protein (residues 1-88)
Test method notes: HPV1a E7 small-molecule binders, primary screen, biochemical, small-molecule microarray, residues 1-88, 635 nm (AID 1129)
Condition details: small-molecule microarray binding, fluorescence 635 nm; higher = more signal
Dear colleague, classification is by composite z-score, with ranges listed here: band 1 (below 0.05), band 2 (0.05 to below 0.9), band 3 (0.9 or more)

Category lookup for the compound `Cc1ccc(N2C(=O)c3ccccc3[C@](C)(C(=O)NCC(F)(F)F)[C@@H]2c2ccc(CO)cc2)nc1` band 1

For the record `C=C(C(=O)CC[C@@H](OC(C)=O)c1ccccc1OCCO)C(C)C` , report the class its composite z-score corresponds to. band 1

Bin this entry: COC(=O)C1=CC(c2ccc(CO)cc2)=CC(C2CC2)N(C)C=C1C(=O)OC (configuration not stated) band 1

Categorize the following entry: `O=C1O[C@H](c2ccccc2)[C@H](c2ccccc2)N2[C@H]1[C@@H](C(=O)Nc1nc3ccccc3s1)[C@]1(C(=O)Nc3ccc(C#CCCO)cc31)[C@H]2c1ccccc1OCCO` band 3

Please let me know in which category the item `COc1ccc([Si](C)(C)[C@H]2[C@H](CC(=O)N3Cc4ccccc4C[C@H]3CO)O[C@@]3(C(=O)N(Cc4cccc(N5C(=O)COc6ccccc65)c4)c4ccccc43)[C@@H]2C)cc1` belongs. band 2

Which composite z-score category applies to `CC(C)[Si](C#C[Si](C(C)C)(C(C)C)C(C)C)(O[C@H](C)c1cn([C@H](C)c2ccccc2)nn1)C(C)C` here? band 2

Which bin, given its composite z-score, does `CC(C)C[C@@H]1NC(=O)[C@@H]2C[C@H](C(=O)NCCCCCNC(=O)CS)[C@H](c3cccc(OCCO)c3)N2C1=O` occupy? band 3

The entry to classify is `CC(C)NC(=O)[C@@H]1c2ccccc2C(=O)N(Cc2cc(F)cc(C(F)(F)F)c2)[C@H]1c1ccc(CO)cc1` ; which class holds it? band 1

Categorize the following entry: CCCCCN1CC=CC23O[C@@H]4/C=C\CCC(C)OC(=O)C4[C@H]2C(=O)N(CCO)[C@@H]3C1=O (some centres not stated) band 1

Returns: class label. Input: `CC(C)C(=C=CC[C@@H](O)c1ccc(CO)o1)CCO` band 1

Pick a category. Item: `C=CC[C@@H](OC(=O)Nc1ccc(SC)cc1)c1ccc(OCCO)cc1` band 1

Lab log: `CCOC(=O)C[C@H]1[C@H](OC(=O)Cc2ccc3c(c2)OCO3)[C@@H](NC(=O)c2ccc3ccccc3c2)c2cc(OCCCO)ccc2N1C(=O)c1ccc2ccccc2n1` — assign composite z-score category band 2

Using the reported composite z-score, which band applies to `O=C1O[C@@H](c2ccccc2)[C@@H](c2ccccc2)N2[C@@H](c3ccc(OCCO)cc3)[C@]3(C(=O)Nc4ccc(C#CC5(O)CCCCCC5)cc43)[C@@H](C(=O)NC[C@H](O)c3ccccc3)[C@H]12` ? band 3

Note: place this compound into its band. Item: `C=CCNC(=O)[C@H]1[C@@H]2C(=O)O[C@@H](c3ccccc3)[C@@H](c3ccccc3)N2[C@@H](c2ccc(OCCO)cc2)[C@]12C(=O)Nc1ccc(C#CCCO)cc12` band 3

----------
Target of assay: Streptavidin (Streptomyces avidinii)
Test method notes: streptavidin binders on small-molecule microarray, primary screen, artefact control for SMM compound annotation, biophysical, 635/667 nm fluorescence (AID 1147);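 further: signal reflects streptavidin binding to arrayed compounds as a control protein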
Condition details: streptavidin binding, higher = more signal
Readout label: composite z-score
Please state the value as a number alone, without comment.

Before answering, review these 5 worked examples.
Request the reported composite z-score associated with `C=C(C1=CCN(S(=O)(=O)c2ccc(C)cc2)C1)[C@@H](OC(C)=O)[C@@H]1CCCN1S(=O)(=O)c1ccccc1[N+](=O)[O-]` -1.05

Fill blank: measured composite z-score of the compound C=CCC(OC(C)=O)[C@@H]1[C@@H](N(Cc2cccc3ccccc23)C(=O)Cc2ccc(OC)cc2)c2cc(OCCCO)ccc2N1C(=O)Cc1ccc(OC)cc1 (some centres not stated) is ____. 0.131

If you can, please state the reported composite z-score value of `Cc1ccc(N2C(=O)c3ccccc3[C@](C)(C(=O)NCC(F)(F)F)[C@@H]2c2ccc(CO)cc2)nc1` . -0.763

Fill in: composite z-score of C=CCC(OC(C)=O)[C@@H]1[C@@H](N(Cc2ccc(-c3cccc(C(F)(F)F)c3)o2)C(=O)c2ccc(-c3ccccc3)cc2)c2cc(OCCCO)ccc2N1C(=O)Cc1ccc(OC)cc1 (some centres not stated) is ___ -0.152

I am curious: what composite z-score value has been reported for `[N-]=[N+]=Nc1ccccc1[C@H]1OC(c2ccc(OCCCO)cc2)=N[C@@]1(Cc1ccccc1)C(N)=O` ? 1.92

---
composite z-score lookup needed for `COc1ccc([Si](C)(C)[C@H]2[C@H](CCO)O[C@@]3(C(=O)N(Cc4ccc(N5C(=O)c6cccc7cccc5c67)cc4)c4ccccc43)[C@@H]2C)cc1` , thanks. 0.338

Give the measured composite z-score of `CCCCC(=C=CC[C@H](O)c1cccc(OCCO)c1)CCO` . -0.209
